Attribute: log10 CC50
test: Cytotoxicity assay, MTT, mock-infected MDBK; type: cell-based; settings: bovine, mock-infected MDBK cells
propertyLabel: log10 CC50 (log10 of the value in µM)

>>> print(df.to_string())
                                   compound  resultnumber
0  CC(C)(C)c1ccc(-c2nc3cc(Cl)c(Cl)cc3[nH]2)cc1 [Compound 3b]          0.85
1  CC(C)(C)c1ccc(-c2nc3ccccc3[nH]2)cc1 [Compound 1b]          0.95
2  CC(C)c1ccc(-c2nc3ccccc3[nH]2)cc1 [Compound 1a]          1.81
3  CC(C)c1ccc(-c2nc3cc(Cl)ccc3[nH]2)cc1 [Compound 2a]          1.90
4  CC(C)c1ccc(-c2nc3cc(Cl)c(Cl)cc3[nH]2)cc1 [Compound 3a]          0.40
